Data credit: ChEMBL document CHEMBL2218924

- testTarget: Serine/threonine-protein kinase mTOR (Homo sapiens) (UniProt P42345)
- conditionParameters: at 1 µM

{"molecule": "CCC(=O)Nc1ccc2ncnc(Nc3cccc(Br)c3)c2c1", "unitName": "%", "residual activity": 123}
{"molecule": "Cn1cc(/C=C2\\C(=O)Nc3ccc(S(N)(=O)=O)cc32)c2ccccc21", "unitName": "%", "residual activity": 104}
{"molecule": "CCOc1cc2ncnc(Nc3cccc(Br)c3)c2cc1OCC", "unitName": "%", "residual activity": 94}
{"molecule": "O=C1Nc2cc(Br)ccc2/C1=C1/Nc2ccccc2/C1=N\\O", "unitName": "%", "residual activity": 119}
{"molecule": "Nc1nc(Nc2ccc(S(N)(=O)=O)cc2)nn1C(=S)Nc1c(F)cccc1F", "unitName": "%", "residual activity": 128}
{"molecule": "CO[C@H]1[C@@H](OC)C[C@H](C)[C@@H](OC)C2=CC(=O)C=C(NC(=O)/C(C)=C/C=C/[C@H](OC)[C@@H](OC(N)=O)/C(C)=C/[C@@H]1C)C2=O", "unitName": "%", "residual activity": 77}
{"molecule": "O=C1Nc2ccc(Br)cc2/C1=C\\c1cc2c([nH]1)CCCC2", "unitName": "%", "residual activity": 110}
{"molecule": "CO[C@H]1C[C@@H]2CC[C@@H](C)[C@@](O)(O2)C(=O)C(=O)N2CCCC[C@H]2C(=O)O[C@H]([C@H](C)C[C@@H]2CC[C@@H](O)[C@H](OC)C2)CC(=O)[C@H](C)/C=C(\\C)[C@@H](O)[C@@H](OC)C(=O)[C@H](C)C[C@H](C)/C=C/C=C/C=C/1C", "unitName": "%", "residual activity": -17}
{"molecule": "O=C1Nc2ccccc2/C1=C1/Nc2ccccc2/C1=N\\OCCC(O)CO (stereo not given)", "unitName": "%", "residual activity": 112}
{"molecule": "O=C1NC(=O)c2c1c1c3ccccc3[nH]c1c1[nH]c3cc(Br)ccc3c21", "unitName": "%", "residual activity": 76}
{"molecule": "O=C1NC(=O)/C(=C/c2ccc3c(c2)OC(F)(F)O3)S1", "unitName": "%", "residual activity": 106}
{"molecule": "Cc1nc(-c2ccccc2)c(-c2ccncc2)o1", "unitName": "%", "residual activity": 116}
{"molecule": "Nc1ccc2ncnc(NCCc3ccc(Oc4ccccc4)cc3)c2c1", "unitName": "%", "residual activity": 112}
{"molecule": "Cc1ccc(NC2=CC(=O)c3sc(C)nc3C2=O)cc1", "unitName": "%", "residual activity": 100}
{"molecule": "COc1ccc(C(=O)Nc2sc3c(c2C(N)=O)CCCC3)cc1OC", "unitName": "%", "residual activity": 95}
{"molecule": "Oc1ccc(Nc2nc(-c3ccc(Cl)cc3)cs2)cc1", "unitName": "%", "residual activity": 103}
{"molecule": "c1ccc2c(-c3ccncc3)c[nH]c2c1", "unitName": "%", "residual activity": 75}
{"molecule": "Ic1cccc(CSc2nnc(-c3ccncc3)o2)c1", "unitName": "%", "residual activity": 108}
{"molecule": "CN(C)CCCn1cc(C2=C(c3c[nH]c4ccccc34)C(=O)NC2=O)c2ccccc21", "unitName": "%", "residual activity": 83}
{"molecule": "C[C@@H](N)[C@H]1CC[C@H](C(=O)Nc2ccncc2)CC1", "unitName": "%", "residual activity": 109}

---

residual activity values, listed per item
- testTarget: Serine/threonine-protein kinase BRSK2 (Homo sapiens)
- conditionParameters: at 1 µM
readoutLabel: residual activity (%)

{"smi": "Nc1nc(Nc2ccc(S(N)(=O)=O)cc2)nn1C(=S)Nc1c(F)cccc1F", "measuredValue": 0}
{"smi": "O=C(O)c1ccc2c3c1cccc3c(=O)n1c3ccccc3nc21", "measuredValue": 104}
{"smi": "Cn1cc(/C=C2\\C(=O)Nc3ccc(S(N)(=O)=O)cc32)c2ccccc21", "measuredValue": 36}
{"smi": "CO[C@@H]1[C@H](N(C)C(=O)c2ccccc2)C[C@H]2O[C@]1(C)n1c3ccccc3c3c4c(c5c6ccccc6n2c5c31)C(=O)NC4", "measuredValue": 4}
{"smi": "COc1ccc(C(=O)Nc2sc3c(c2C(N)=O)CCCC3)cc1OC", "measuredValue": 105}
{"smi": "CC(=O)O/N=C1\\C(=C2\\C(=O)Nc3cc(Br)ccc32)Nc2ccccc21", "measuredValue": 52}
{"smi": "COc1cc2ncnc(Nc3ccc(Oc4ccccc4)cc3)c2cc1OC", "measuredValue": 89}
{"smi": "COc1cc2ncnc(N3CCN(C(=O)Nc4ccc(Oc5ccccc5)cc4)CC3)c2cc1OC", "measuredValue": 113}
{"smi": "CCOc1cc2ncnc(Nc3cccc(Br)c3)c2cc1OCC", "measuredValue": 95}
{"smi": "O=C1Nc2ccc(Br)cc2/C1=C\\c1cc2c([nH]1)CCCC2", "measuredValue": 107}

---

residual activity values, listed per item
- testTarget: Protein kinase C delta type (Homo sapiens) (UniProt Q05655)
- Sequence (Q05655 whole entry, looked up): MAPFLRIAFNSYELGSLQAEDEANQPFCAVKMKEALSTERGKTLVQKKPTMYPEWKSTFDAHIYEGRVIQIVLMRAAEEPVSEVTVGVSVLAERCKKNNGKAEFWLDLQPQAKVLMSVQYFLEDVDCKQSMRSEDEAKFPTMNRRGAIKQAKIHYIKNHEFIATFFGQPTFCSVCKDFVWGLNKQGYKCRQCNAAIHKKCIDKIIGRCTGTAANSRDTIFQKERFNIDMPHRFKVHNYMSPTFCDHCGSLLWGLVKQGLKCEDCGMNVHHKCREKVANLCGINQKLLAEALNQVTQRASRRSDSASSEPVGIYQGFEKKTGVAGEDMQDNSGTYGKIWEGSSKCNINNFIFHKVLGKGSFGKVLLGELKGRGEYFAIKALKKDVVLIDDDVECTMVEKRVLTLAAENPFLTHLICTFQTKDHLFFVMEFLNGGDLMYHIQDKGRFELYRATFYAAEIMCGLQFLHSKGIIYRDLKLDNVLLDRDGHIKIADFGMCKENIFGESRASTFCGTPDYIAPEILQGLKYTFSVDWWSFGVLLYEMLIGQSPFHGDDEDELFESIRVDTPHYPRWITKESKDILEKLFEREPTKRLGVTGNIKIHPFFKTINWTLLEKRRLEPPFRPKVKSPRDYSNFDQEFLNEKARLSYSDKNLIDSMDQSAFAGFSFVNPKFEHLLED
- conditionParameters: at 10 µM

{"smi": "C[C@@H](N)[C@H]1CC[C@H](C(=O)Nc2ccncc2)CC1", "unitName": "%", "residual activity": 12}
{"smi": "CC#CC(=O)Nc1cc2c(Nc3ccc(F)c(Cl)c3)ncnc2cn1", "unitName": "%", "residual activity": 102}
{"smi": "CO[C@@H]1[C@H](N(C)C(=O)c2ccccc2)C[C@H]2O[C@]1(C)n1c3ccccc3c3c4c(c5c6ccccc6n2c5c31)C(=O)NC4", "unitName": "%", "residual activity": 9}
{"smi": "Cc1nc(-c2ccccc2)c(-c2ccncc2)o1", "unitName": "%", "residual activity": 90}
{"smi": "COc1cccc(-c2cc(=O)c3ccccc3o2)c1N", "unitName": "%", "residual activity": 113}
{"smi": "CCN(CC)C(=O)c1ccc(Nc2nc(OCC3CCCCC3)c3nc[nH]c3n2)cc1", "unitName": "%", "residual activity": 26}
{"smi": "COc1ccc(S(=O)(=O)N(CCO)c2ccccc2CN(C)C/C=C/c2ccc(Cl)cc2)cc1", "unitName": "%", "residual activity": 106}
{"smi": "COc1cc2ncnc(Nc3ccc(O)c(Br)c3)c2cc1OC", "unitName": "%", "residual activity": 81}
{"smi": "CCOc1cc2ncnc(Nc3cccc(Br)c3)c2cc1OCC", "unitName": "%", "residual activity": 104}
{"smi": "O=C1NC(=O)/C(=C/c2ccc3c(c2)OC(F)(F)O3)S1", "unitName": "%", "residual activity": 103}
{"smi": "CNc1cc2c(Nc3cccc(Br)c3)ncnc2cn1", "unitName": "%", "residual activity": 105}
{"smi": "Cc1cccc(-c2[nH]c(C(C)(C)C)nc2-c2ccc3c(c2)OCO3)n1", "unitName": "%", "residual activity": 101}
{"smi": "CC(=O)O/N=C1\\C(=C2\\C(=O)Nc3cc(Br)ccc32)Nc2ccccc21", "unitName": "%", "residual activity": 108}
{"smi": "N#CCCc1ccc2c(c1)-c1[nH]c3ccc([N+](=O)[O-])cc3c1CC(=O)N2", "unitName": "%", "residual activity": 57}
{"smi": "COc1cc2ncnc(Nc3ccc(Oc4ccccc4)cc3)c2cc1OC", "unitName": "%", "residual activity": 107}
{"smi": "COc1ccc(OC)c2c(=S)c3ccccc3[nH]c12", "unitName": "%", "residual activity": 98}
{"smi": "O=C(O)c1ccc2c3c1cccc3c(=O)n1c3ccccc3nc21", "unitName": "%", "residual activity": 107}

---

residual activity values, listed per item
- testTarget: Inhibitor of nuclear factor kappa-B kinase subunit alpha (Homo sapiens)
- Sequence (whole entry): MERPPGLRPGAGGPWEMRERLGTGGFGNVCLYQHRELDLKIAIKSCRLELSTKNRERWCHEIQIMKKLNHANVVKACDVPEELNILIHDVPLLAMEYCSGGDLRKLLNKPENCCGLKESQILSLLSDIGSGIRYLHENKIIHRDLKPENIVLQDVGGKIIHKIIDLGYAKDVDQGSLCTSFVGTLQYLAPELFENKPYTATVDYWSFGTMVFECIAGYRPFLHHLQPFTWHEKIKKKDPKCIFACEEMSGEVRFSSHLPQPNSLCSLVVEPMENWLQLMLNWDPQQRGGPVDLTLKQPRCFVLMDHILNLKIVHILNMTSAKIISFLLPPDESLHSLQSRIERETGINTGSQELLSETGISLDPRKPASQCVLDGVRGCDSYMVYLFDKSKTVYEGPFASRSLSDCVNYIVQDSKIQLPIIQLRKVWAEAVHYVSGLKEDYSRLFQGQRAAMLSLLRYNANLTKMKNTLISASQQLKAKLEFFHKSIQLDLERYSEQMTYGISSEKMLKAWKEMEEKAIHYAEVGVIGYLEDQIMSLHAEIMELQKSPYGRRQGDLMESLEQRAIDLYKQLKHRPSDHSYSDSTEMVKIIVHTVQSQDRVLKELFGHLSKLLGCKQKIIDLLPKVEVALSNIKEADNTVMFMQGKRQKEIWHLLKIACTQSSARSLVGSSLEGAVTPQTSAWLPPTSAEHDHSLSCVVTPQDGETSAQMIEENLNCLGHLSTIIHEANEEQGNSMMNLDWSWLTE
- conditionParameters: at 1 µM

{"smi": "CN(C)CCCn1cc(C2=C(c3c[nH]c4ccccc34)C(=O)NC2=O)c2ccccc21", "residual activity [%]": 101}
{"smi": "COc1cc2ncnc(Nc3ccc(Oc4ccccc4)cc3)c2cc1OC", "residual activity [%]": 117}
{"smi": "CCN(CC)CCCCN1c2ccccc2Oc2ccc(Cl)cc21", "residual activity [%]": 97}
{"smi": "O=C1NC(=O)/C(=C\\c2ccc3nccnc3c2)S1", "residual activity [%]": 100}
{"smi": "CCC(=O)Nc1ccc2ncnc(Nc3cccc(Br)c3)c2c1", "residual activity [%]": 121}
{"smi": "Nc1ccc2ncnc(NCCc3ccc(Oc4ccccc4)cc3)c2c1", "residual activity [%]": 107}
{"smi": "CCOc1cc2ncnc(Nc3cccc(Br)c3)c2cc1OCC", "residual activity [%]": 108}
{"smi": "O=c1c2ccccc2[nH]c(=S)n1CCN1CCC(=C(c2ccc(F)cc2)c2ccc(F)cc2)CC1", "residual activity [%]": 87}
{"smi": "CO[C@H]1C[C@@H]2CC[C@@H](C)[C@@](O)(O2)C(=O)C(=O)N2CCCC[C@H]2C(=O)O[C@H]([C@H](C)C[C@@H]2CC[C@@H](O)[C@H](OC)C2)CC(=O)[C@H](C)/C=C(\\C)[C@@H](O)[C@@H](OC)C(=O)[C@H](C)C[C@H](C)/C=C/C=C/C=C/1C", "residual activity [%]": 121}
